- System: HL-60(TB) leukemia
- method summary: NCI tumour cell line growth inhibition, 48 h
Documented TGI across a set of molecules
quantity: TGI

- COc1cc(C(N)=O)cc(NC(=O)/C=C/c2ccccc2)c1OC: > 100 µM
- COc1ccc(C2=NN(c3ccccc3)C(c3cc4cc(Br)ccc4nc3Cl)C2)cc1 (configuration not stated): > 25 µM
- CC1(C)CCc2cc3c(-c4ccccc4)cc(=O)oc3cc2O1: > 100 µM
- CCCCNC(=O)Nc1c(C(N)=O)c2n(c1C(=O)OCC)CCCCC2: > 100 µM
- COC(=O)/C=C1/N=C(N(C)/N=C/c2ccccc2)NC1=O: > 100 µM
- OCC1OC(n2nc(-c3ccccc3)nc2-c2cnccn2)C(O)C1O (configuration not stated): > 100 µM
- NC(=O)C(NC=O)c1ccccc1 (configuration not stated): > 100 µM
- CCOC(=O)C1=C(C)NC(=O)NC1c1coc2cc(C)cc(C)c2c1=O (configuration not stated): > 100 µM
- N#CC(C#N)=CSc1ccccc1: > 100 µM
- Cc1ccc(S(=O)(=O)Oc2ccc(OS(=O)(=O)c3ccc(C)cc3)c3c2C(=O)c2ccccc2C3=O)cc1: > 100 µM
- COc1cccc(C2NC(=S)NC(C)=C2C(=O)Nc2ccc(F)c(Cl)c2)c1 (configuration not stated): > 50 µM
- O=c1c2ccccc2c(=O)c2c1cc(Cl)c1[nH]c3c([nH]c12)c(Cl)cc1c(=O)c2ccccc2c(=O)c13: > 100 µM
